Assay: in vivo
Settings: female, Sprague Dawley, rat, iv, 0.15 mg/kg/day, Cmax
quantityName: Cmax (ng/mL)
Numbers only here, please. The scale is ng/mL.

Query: Cmax; subject: CC(C)[C@]12O[C@H]1[C@@H]1O[C@]13[C@]1(O[C@H]1C[C@H]1C4=C(CC[C@@]13C)C(=O)OC4)[C@@H]2O [Triptolide]
74.6

----------
Test: in vivo
Conditions: female, Sprague Dawley, rat, iv, 0.15 mg/kg/day, Cl
quantityName: clearance (mL/min)
Numbers only here, please. The scale is mL/min.

Query: clearance; subject: CC(C)[C@]12O[C@H]1[C@@H]1O[C@]13[C@]1(O[C@H]1C[C@H]1C4=C(CC[C@@]13C)C(=O)OC4)[C@@H]2O [Triptolide]
35

The measured values listed here are drawn from paper PMC4091685.
